meta.source: ChEMBL document CHEMBL1135583

Provide the recorded pIC50 for the entries that follow.
# Test system: Trypanosoma brucei rhodesiense
# assay.overview: Predicted pIC50 against Trypomastigotes Brucei rhodesiense.
# Type: functional, organism-based
Answers are plain numbers, as −log10 of the molar value.

Sample answers from the record:
>  <molecule>
O=P(O)(O)C(NC1CCCCC1)P(=O)(O)O

>  <assayed.system>
Trypanosoma brucei rhodesiense

>  <observed.result>
4.68

$$$$
>  <molecule>
CCN(CC)C(P(=O)(O)O)P(=O)(O)O

>  <assayed.system>
Trypanosoma brucei rhodesiense

>  <observed.result>
4.46

$$$$
>  <molecule>
Cc1cccnc1NC(P(=O)(O)O)P(=O)(O)O

>  <assayed.system>
Trypanosoma brucei rhodesiense

>  <observed.result>
6.15

$$$$
>  <molecule>
O=P(O)(O)C(Nc1ccc(Cl)cn1)P(=O)(O)O

>  <assayed.system>
Trypanosoma brucei rhodesiense

>  <observed.result>
4.27

$$$$

Batch: pIC50 for all items listed.
1. O=P(O)(O)C(O)(Cc1cccnc1)P(=O)(O)O
2. O=P(O)(O)C(O)(Cc1c[nH]cn1)P(=O)(O)O
3. Nc1ccc(CC(O)(P(=O)(O)O)P(=O)(O)O)cc1
4. CC(C)CCNC(P(=O)(O)O)P(=O)(O)O

Response:
1. 5.07
2. 5.07
3. 4.40
4. 3.99

====

# assay.overview: Therapeutic index measured as the ratio of LD50 (KB cells) to IC50 (T.b. rhodesiense)
# Assay type: cell-based
# condition.context: trypanosoma brucei rhodesiense, KB cells versus T. b. rhodesiense; read-out: TI
Provide the recorded selectivity ratio for the entries that follow.

Sample answers from the record:
>  <molecule>
Cc1ccnc(NC(P(=O)(O)O)P(=O)(O)O)c1

>  <reported.endpoint>
selectivity ratio

>  <observed.result>
208

$$$$
>  <molecule>
CCCC(O)(P(=O)(O)O)P(=O)(O)O

>  <reported.endpoint>
selectivity ratio

>  <observed.result>
> 11

$$$$
>  <molecule>
O=P(O)(O)C(NC1CCCCC1)P(=O)(O)O

>  <reported.endpoint>
selectivity ratio

>  <observed.result>
13

$$$$
>  <molecule>
CCCCCNC(P(=O)(O)O)P(=O)(O)O

>  <reported.endpoint>
selectivity ratio

>  <observed.result>
> 23

$$$$
>  <molecule>
CCCCC(O)(P(=O)(O)O)P(=O)(O)O

>  <reported.endpoint>
selectivity ratio

>  <observed.result>
> 10

$$$$

Batch: selectivity ratio for all items listed.
1. O=P(O)(O)C(Nc1ccc(Br)cn1)P(=O)(O)O
2. CC(N)CC(O)(P(=O)(O)O)P(=O)(O)O (configuration not stated)
3. O=P(O)(O)C(O)(CCc1cccnc1)P(=O)(O)O
4. O=P(O)(O)C(O)(CSc1ccncc1)P(=O)(O)O
5. CCCCCCCCCC(O)(P(=O)(O)O)P(=O)(O)O

Response:
1. 2
2. 125
3. > 473
4. > 38
5. > 38

Batch: selectivity ratio for all items listed.
1. O=P(O)(O)C(Nc1ccc(Cl)cn1)P(=O)(O)O
2. NCCC(O)(P(=O)(O)O)P(=O)(O)O

Response:
> 19
< 2

====

# assay.overview: Therapeutic index measured as the ratio of LD50 (KB cells) to IC50 (T.b. rhodesiense)
# Assay type: cell-based
# condition.context: trypanosoma brucei rhodesiense, KB cells versus T. b. rhodesiense; read-out: TI
Provide the recorded selectivity ratio for the entries that follow.
Give bare numbers.

>  <structure>
O=P(O)(O)C(O)(Cc1c[nH]cn1)P(=O)(O)O

>  <selectivity ratio>
5

$$$$

Batch: selectivity ratio for all items listed.
1. NCCCCCC(O)(P(=O)(O)O)P(=O)(O)O
2. CCCCCN(C)CCC(O)(P(=O)(O)O)P(=O)(O)O
3. CCN(CC)C(P(=O)(O)O)P(=O)(O)O

Response:
[21, 10, 24]

Batch: selectivity ratio for all items listed.
1. CCCCCCCCNC(P(=O)(O)O)P(=O)(O)O
2. O=P(O)(O)C(O)(Cc1ccccn1)P(=O)(O)O
3. Cc1cccnc1NC(P(=O)(O)O)P(=O)(O)O
4. O=P(O)(O)C(O)(Cc1cccnc1)P(=O)(O)O
5. CCCCCCCCCCCC(O)(P(=O)(O)O)P(=O)(O)O

Response:
39
63
267
29
246

Query: Which selectivity ratio is reported for this compound? Nc1ccc(CC(O)(P(=O)(O)O)P(=O)(O)O)cc1
Response: 5

====

# Tested on: Trypanosoma brucei rhodesiense
# assay.overview: 50% inhibitory concentration against Trypanosoma brucei rhodesiense
# Assay type: functional, organism-based
reported.endpoint: pIC50
Numbers only, as −log10 of the molar value.

Query: Which pIC50 is reported for this molecule? O=P(O)(O)C(O)(Cc1cccnc1)P(=O)(O)O
Response: 5.39

====

# System: Trypanosoma brucei rhodesiense
# assay.overview: In vitro rescue of growth inhibition of Trypanosoma brucei rhodesiense [risedronate + farnesol(12.5 ug/mL)]
# Format: functional, organism-based
pIC50: −log10 of the molar value.
reported.endpoint: pIC50

Query: Trypanosoma brucei rhodesiense / pIC50 / CC(C)=CCC/C(C)=C/CC/C(C)=C/CO.O=P(O)(O)C(O)(Cc1cccnc1)P(=O)(O)O : value?
Response: < 4.08

====

# assay.overview: 50% lethal dose for inhibition of KB cells growth
# Format: cell-based
# condition.context: human, read-out: LD50 (the source's name)
reported.endpoint: CC50 (µM)
One number for each entry, in µM.

Sample answers from the record:
>  <structure>
Cc1ccnc(NC(P(=O)(O)O)P(=O)(O)O)c1

>  <result.unit>
µM

>  <CC50>
127

$$$$
>  <structure>
NCCCCCC(O)(P(=O)(O)O)P(=O)(O)O

>  <result.unit>
µM

>  <CC50>
680

$$$$
>  <structure>
O=P(O)(O)C(NC1CCCCC1)P(=O)(O)O

>  <result.unit>
µM

>  <CC50>
271

$$$$
>  <structure>
NCCC(O)(P(=O)(O)O)P(=O)(O)O

>  <result.unit>
µM

>  <CC50>
156

$$$$
>  <structure>
O=P(O)(O)C(Nc1ccc(Br)cn1)P(=O)(O)O

>  <result.unit>
µM

>  <CC50>
87

$$$$

Batch: CC50 for all items listed.
1. CCCCCN(C)CCC(O)(P(=O)(O)O)P(=O)(O)O
2. CCCCCCCCCCCC(O)(P(=O)(O)O)P(=O)(O)O
3. Nc1ccc(CC(O)(P(=O)(O)O)P(=O)(O)O)cc1

Response:
1: 10.1; 2: 492; 3: 218

====

# Tested on: Trypanosoma brucei rhodesiense
# assay.overview: Predicted pIC50 against Trypomastigotes Brucei rhodesiense.
# Type: functional, organism-based
Provide the recorded pIC50 for the entries that follow.
One number for each entry, as −log10 of the molar value.

>  <compound>
O=P(O)(O)C(O)(CCc1cccnc1)P(=O)(O)O

>  <pIC50>
5.77

$$$$
>  <compound>
CC(N)CC(O)(P(=O)(O)O)P(=O)(O)O (stereo not drawn)

>  <pIC50>
5.11

$$$$
>  <compound>
CCCCCC(O)(P(=O)(O)O)P(=O)(O)O

>  <pIC50>
4.20

$$$$
>  <compound>
CCCC(O)(P(=O)(O)O)P(=O)(O)O

>  <pIC50>
4.04

$$$$
>  <compound>
O=P(O)(O)C(O)(CSc1ccncc1)P(=O)(O)O

>  <pIC50>
4.70

$$$$
>  <compound>
O=P(O)(O)C(Nc1ccc(Br)cn1)P(=O)(O)O

>  <pIC50>
4.40

$$$$
>  <compound>
Cc1ccnc(NC(P(=O)(O)O)P(=O)(O)O)c1

>  <pIC50>
6.21

$$$$
>  <compound>
CCCCCNC(P(=O)(O)O)P(=O)(O)O [(PENTYLAMINO)METHYLENEDIPHOSPHONIC ACID]

>  <pIC50>
4.30

$$$$

Batch: pIC50 for all items listed.
1. O=P(O)(O)C(O)(Cc1ccccc1)P(=O)(O)O
2. CCCCC(O)(P(=O)(O)O)P(=O)(O)O
3. CCCCCN(C)CCC(O)(P(=O)(O)O)P(=O)(O)O [IBANDRONIC ACID]
4. CN(C)CCC(O)(P(=O)(O)O)P(=O)(O)O [OLPADRONIC ACID]
5. O=P(O)(O)C(O)(Cc1ccccn1)P(=O)(O)O

Response:
4.67
4.00
6.02
5.27
6.66

====

Provide the recorded selectivity ratio for the entries that follow.
# assay.overview: Therapeutic index measured as the ratio of LD50 (KB cells) to IC50 (T.b. rhodesiense)
# Format: cell-based
# condition.context: trypanosoma brucei rhodesiense, KB cells versus T. b. rhodesiense; read-out: TI

>  <compound>
CCCCCC(O)(P(=O)(O)O)P(=O)(O)O

>  <selectivity ratio>
> 16

$$$$
>  <compound>
CCCCCCCCCCC(O)(P(=O)(O)O)P(=O)(O)O

>  <selectivity ratio>
> 101

$$$$
>  <compound>
CC(C)CCNC(P(=O)(O)O)P(=O)(O)O

>  <selectivity ratio>
> 11

$$$$
>  <compound>
CN(C)CCC(O)(P(=O)(O)O)P(=O)(O)O [OLPADRONIC ACID]

>  <selectivity ratio>
> 195

$$$$

Pending compound:
Query: Which selectivity ratio is reported for this compound? O=P(O)(O)C(O)(Cc1ccccc1)P(=O)(O)O
Response: > 44
